Target: AT4 receptor (Oryctolagus cuniculus, UniProt G1SFU4)
Sequence (G1SFU4 1-1025): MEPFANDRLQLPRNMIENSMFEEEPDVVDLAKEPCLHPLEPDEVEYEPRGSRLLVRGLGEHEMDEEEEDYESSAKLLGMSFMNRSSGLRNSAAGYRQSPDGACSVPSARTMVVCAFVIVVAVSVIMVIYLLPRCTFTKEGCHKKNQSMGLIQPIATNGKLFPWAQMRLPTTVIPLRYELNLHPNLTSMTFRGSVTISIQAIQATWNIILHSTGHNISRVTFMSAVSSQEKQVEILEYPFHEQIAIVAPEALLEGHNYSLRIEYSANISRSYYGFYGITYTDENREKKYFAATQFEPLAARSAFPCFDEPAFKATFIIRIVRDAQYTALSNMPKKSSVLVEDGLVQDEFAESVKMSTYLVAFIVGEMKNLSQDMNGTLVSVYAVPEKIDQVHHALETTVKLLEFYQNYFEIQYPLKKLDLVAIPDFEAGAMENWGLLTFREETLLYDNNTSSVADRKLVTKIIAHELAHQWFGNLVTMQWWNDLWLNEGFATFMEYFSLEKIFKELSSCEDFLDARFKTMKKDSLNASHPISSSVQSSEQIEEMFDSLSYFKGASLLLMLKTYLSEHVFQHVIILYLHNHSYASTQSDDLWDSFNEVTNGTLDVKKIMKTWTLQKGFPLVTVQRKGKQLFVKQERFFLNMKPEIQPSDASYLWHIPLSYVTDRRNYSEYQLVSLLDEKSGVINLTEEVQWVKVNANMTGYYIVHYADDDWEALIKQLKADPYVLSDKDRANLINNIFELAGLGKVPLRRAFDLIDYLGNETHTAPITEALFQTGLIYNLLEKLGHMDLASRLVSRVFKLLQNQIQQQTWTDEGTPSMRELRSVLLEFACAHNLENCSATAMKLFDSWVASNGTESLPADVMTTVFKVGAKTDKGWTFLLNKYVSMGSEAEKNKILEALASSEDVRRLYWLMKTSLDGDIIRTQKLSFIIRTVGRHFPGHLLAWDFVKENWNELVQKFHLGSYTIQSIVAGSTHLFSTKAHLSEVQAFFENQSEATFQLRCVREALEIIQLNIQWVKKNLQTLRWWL
Experiment: 125I-AIV binding and competition, rabbit heart P2 membranes
Conditions: competition of 0.5 nM 125I-AIV, 120 min, 37° C.
# Ki annotations

SRVYIHPI [Sar1, Ile8 -AII] = > 1 µM

// next entry
input: Would you mind telling me what Ki value was observed for Asp1 Arg2 Val3 Tyr4 Ile5 His6 Pro7 Phe8 (DRVYIHPF) [AII] ?
output: > 1 µM

* * *

Biological target: AT4 receptor (Bos taurus)
Sequence (F1N1Q8 1-1022): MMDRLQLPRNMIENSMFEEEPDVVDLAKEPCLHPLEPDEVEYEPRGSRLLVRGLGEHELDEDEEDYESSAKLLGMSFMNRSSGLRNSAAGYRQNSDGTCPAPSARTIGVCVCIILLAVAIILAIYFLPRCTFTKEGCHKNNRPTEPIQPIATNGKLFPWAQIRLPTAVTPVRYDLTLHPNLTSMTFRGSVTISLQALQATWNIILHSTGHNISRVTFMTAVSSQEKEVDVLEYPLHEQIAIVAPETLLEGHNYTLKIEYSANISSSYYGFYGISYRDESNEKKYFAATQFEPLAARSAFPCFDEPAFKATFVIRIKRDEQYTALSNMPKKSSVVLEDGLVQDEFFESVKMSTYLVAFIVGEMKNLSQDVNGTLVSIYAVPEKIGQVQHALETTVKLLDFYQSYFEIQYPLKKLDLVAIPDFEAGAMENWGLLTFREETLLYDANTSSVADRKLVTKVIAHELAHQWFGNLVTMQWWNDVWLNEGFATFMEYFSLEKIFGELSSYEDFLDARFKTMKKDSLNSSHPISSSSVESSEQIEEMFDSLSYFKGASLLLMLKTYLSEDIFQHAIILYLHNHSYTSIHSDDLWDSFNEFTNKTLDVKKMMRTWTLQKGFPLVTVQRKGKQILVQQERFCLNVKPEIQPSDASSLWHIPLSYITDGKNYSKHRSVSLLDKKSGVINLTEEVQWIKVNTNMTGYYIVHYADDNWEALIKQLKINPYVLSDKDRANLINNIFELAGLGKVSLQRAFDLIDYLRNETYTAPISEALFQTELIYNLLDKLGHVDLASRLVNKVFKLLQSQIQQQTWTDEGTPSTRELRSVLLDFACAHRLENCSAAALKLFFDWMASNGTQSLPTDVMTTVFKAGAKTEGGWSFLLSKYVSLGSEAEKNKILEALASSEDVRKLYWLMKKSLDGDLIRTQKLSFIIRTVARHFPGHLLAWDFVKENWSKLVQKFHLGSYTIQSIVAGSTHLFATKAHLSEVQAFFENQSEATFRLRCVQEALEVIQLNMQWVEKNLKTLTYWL
Assay: 125I-AIV binding and competition, bovine adrenal cortical membranes
Conditions: read-out: 125I-AIV Binding (Ki); competition
pKi: −log10 of the molar value.
parameter measured: pKi

SRVYIHPI [Sar1, Ile8 -AII] = < 6.00

// next entry
input: Notebook: pull reported pKi for AT4 receptor (Bos taurus), entry Asp1 Arg2 Val3 Tyr4 Ile5 His6 Pro7 Phe8 (DRVYIHPF) [AII]
output: < 6.00

* * *

Target: AT4 receptor (Bos taurus, UniProt F1N1Q8)
Sequence (F1N1Q8 1-1022): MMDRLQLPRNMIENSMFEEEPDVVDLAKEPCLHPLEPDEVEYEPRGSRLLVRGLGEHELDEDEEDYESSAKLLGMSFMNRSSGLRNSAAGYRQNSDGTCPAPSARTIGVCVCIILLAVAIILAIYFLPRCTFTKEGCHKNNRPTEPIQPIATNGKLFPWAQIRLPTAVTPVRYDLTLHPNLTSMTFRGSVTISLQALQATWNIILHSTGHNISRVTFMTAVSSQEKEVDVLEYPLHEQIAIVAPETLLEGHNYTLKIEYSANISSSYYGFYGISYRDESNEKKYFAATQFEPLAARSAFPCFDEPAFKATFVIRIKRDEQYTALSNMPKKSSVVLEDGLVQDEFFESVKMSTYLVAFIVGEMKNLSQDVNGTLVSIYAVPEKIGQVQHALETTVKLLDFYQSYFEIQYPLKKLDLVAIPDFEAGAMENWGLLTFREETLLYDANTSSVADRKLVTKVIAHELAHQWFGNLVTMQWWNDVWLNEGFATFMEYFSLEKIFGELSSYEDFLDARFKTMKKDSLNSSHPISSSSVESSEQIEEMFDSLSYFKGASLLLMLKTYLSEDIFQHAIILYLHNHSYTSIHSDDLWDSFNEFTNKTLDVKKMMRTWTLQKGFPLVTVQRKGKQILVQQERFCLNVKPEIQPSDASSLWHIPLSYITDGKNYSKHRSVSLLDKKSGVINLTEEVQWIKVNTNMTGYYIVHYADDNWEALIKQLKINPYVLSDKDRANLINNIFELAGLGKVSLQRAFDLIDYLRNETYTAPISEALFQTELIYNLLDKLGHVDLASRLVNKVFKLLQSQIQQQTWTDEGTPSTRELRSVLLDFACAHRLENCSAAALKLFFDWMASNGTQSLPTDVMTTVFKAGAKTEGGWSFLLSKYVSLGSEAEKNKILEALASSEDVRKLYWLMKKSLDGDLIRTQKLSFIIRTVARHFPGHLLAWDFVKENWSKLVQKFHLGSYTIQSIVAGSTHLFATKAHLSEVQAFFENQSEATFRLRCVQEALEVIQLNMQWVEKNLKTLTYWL
Assay: 125I-AIV binding and competition, coronary venular endothelial cell (CVEC) membranes
Design: species or system bovine
Details: competition of 0.5 nM 125I-AIV; read-out: Ki
parameter measured: pKi
Just the number, please; pKi means minus log10 of the concentration in mol/L.

Asp1 Arg2 Val3 Tyr4 Ile5 His6 Pro7 Phe8 (DRVYIHPF) [AII] = 6.71

// next entry
input: Would you mind telling me what pKi value was observed for SRVYIHPI [Sar1, Ile8 -AII] ?
output: 6.58

* * *

Biological target: AT4 receptor (Bos taurus, UniProt F1N1Q8)
Assay: 125I-AIV binding and competition, coronary venular endothelial cell (CVEC) membranes
Set-up: species or system bovine
Settings: competition of 0.5 nM 125I-AIV
Residues, ends and D or L forms follow the SMILES beside them.
parameter measured: Ki (nM)
Quick note: give the figure in nM, leave out the unit.

input: Would you mind telling me what Ki value was observed for CC[C@H](C)[C@H](NC(=O)[C@@H](N)Cc1ccc(O)cc1)C(=O)N[C@@H](Cc1cnc[nH]1)C(=O)N1CCC[C@H]1C(=O)N[C@@H](Cc1ccccc1)C(=O)O [AII(4-8), YIHPF] (H-YIHPF-OH) ?
output: 253

* * *

Target: AT1 receptor (AII receptor) (Bos taurus, UniProt P25104)
Construct: from tissue; host or cells: bovine adrenal cortex membranes
Sequence (P25104 1-359): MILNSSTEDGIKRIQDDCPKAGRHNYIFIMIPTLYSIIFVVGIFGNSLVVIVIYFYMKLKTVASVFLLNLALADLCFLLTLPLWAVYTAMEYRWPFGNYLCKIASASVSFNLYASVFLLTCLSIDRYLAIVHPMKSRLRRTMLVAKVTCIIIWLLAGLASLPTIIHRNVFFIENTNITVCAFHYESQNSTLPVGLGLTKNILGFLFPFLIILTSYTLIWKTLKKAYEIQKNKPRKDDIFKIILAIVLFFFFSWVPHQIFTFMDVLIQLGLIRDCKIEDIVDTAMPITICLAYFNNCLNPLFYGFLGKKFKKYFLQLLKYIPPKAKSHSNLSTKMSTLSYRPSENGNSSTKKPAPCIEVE
Assay type: binding, bovine
Conditions: read-out: Kd (calculated from kinetic constants)
parameter measured: pKd
Just the number, please; pKd means minus log10 of the concentration in mol/L.

input: Would you mind telling me what pKd value was observed for SRVYIHPI [Sar1, Ile8 -AII] ?
output: 9.65
